Target: human mAChR M1 (Homo sapiens, UniProt P11229)
Construct: host or cells: CHO-K1 cells (ATCC), stably transfected using Lipofectamine2000
Test: mAChR M1 cell-based functional assay (calcium mobilization), agonist activity upon compound addition
Details: CHO-K1 cells expressing hM1; relative to the maximum for acetylcholine
Parameter: Emax

>>> df
                                   compound  observed_result
0  Cc1nc(-c2ccc(Cn3cc(C(=O)N[C@H]4CCCC[C@@H]4O)c4ncccc4c3=O)cc2)co1             < 5%
1  Cn1ccc(-c2ccc(Cn3cc(C(=O)N[C@H]4CCCCC[C@@H]4O)c4ncn(C)c4c3=O)c(F)c2)n1             < 5%
2  O=C(N[C@H]1CCOC[C@@H]1O)c1cn(Cc2ccc(-c3cscn3)cc2)c(=O)c2cccnc12              25%
3  Cn1cc2c(-c3cc(F)c(Cn4cc(C(=O)N[C@H]5CCCC[C@@H]5O)c5nccnc5c4=O)c(F)c3)cccc2n1              50%
4  Cn1cc2c(-c3cc(F)c(Cn4cc(C(=O)NC5CCOCC5)c5nccnc5c4=O)c(F)c3)cccc2n1             < 5%
5  Cc1cn2c(=O)n(Cc3ccc(-c4cnn(C)c4)cc3F)cc(C(=O)N[C@H]3CCOC[C@@H]3O)c2n1             < 5%
6  O=C(N[C@H]1CCOC[C@@H]1O)c1cn(Cc2ccc(-n3cccn3)cc2)c(=O)c2ccoc12 [Compound D2]             < 5%

====

Target: human mAChR M1 (Homo sapiens)
Construct: host or cells: CHO-K1 cells (ATCC), stably transfected using Lipofectamine2000
Sequence (P11229 1-460): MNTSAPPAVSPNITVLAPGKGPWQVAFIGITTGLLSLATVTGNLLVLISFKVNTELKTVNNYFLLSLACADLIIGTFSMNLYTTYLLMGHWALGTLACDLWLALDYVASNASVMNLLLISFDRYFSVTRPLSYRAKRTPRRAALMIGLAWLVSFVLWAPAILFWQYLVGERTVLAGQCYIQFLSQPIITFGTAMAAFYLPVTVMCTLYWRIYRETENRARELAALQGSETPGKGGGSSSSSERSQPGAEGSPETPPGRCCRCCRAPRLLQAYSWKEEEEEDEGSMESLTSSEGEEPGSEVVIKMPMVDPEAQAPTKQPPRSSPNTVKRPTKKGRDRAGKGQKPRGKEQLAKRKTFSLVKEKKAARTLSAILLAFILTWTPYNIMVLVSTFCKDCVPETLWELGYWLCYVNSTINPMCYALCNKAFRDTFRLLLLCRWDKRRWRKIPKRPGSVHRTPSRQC
Assay: mAChR M1 cell-based functional assay (calcium mobilization), PAM activity: increase in the EC20 acetylcholine response
Details: CHO-K1 cells expressing hM1; potentiation of EC20 acetylcholine response
pEC50: −log10 of the molar value.
Mark NO for pEC50 values under 6, and YES for everything at or above.

                                    molecule                   study_system  classification
 0  Cn1cc2c(-c3cc(F)c(Cn4cc(C(=O)N[C@@H]5CC[C@H]5O)c5occc5c4=O)c(F)c3)cccc2n1 (stereo in doubt) [Compound D21]  human mAChR M1 (Homo sapiens)              NO
 1  Cc1ccc(-c2cc(F)c(Cn3cc(C(=O)N[C@H]4CCCC[C@@H]4O)c4ncccc4c3=O)c(F)c2)cn1 [Compound A35]  human mAChR M1 (Homo sapiens)             YES
 2  Cc1cccc(-c2ccc(Cn3cc(C(=O)N[C@H]4CCOC[C@@H]4O)c4ncccc4c3=O)c(F)c2)c1 [Compound A29]  human mAChR M1 (Homo sapiens)              NO
 3  Cn1cc2c(-c3cc(F)c(Cn4cc(C(=O)N[C@H]5CCCCC[C@@H]5O)c5nccnc5c4=O)c(F)c3)cccc2n1 [Compound A67]  human mAChR M1 (Homo sapiens)             YES
 4  O=C(N[C@H]1CCCCC[C@@H]1O)c1cn(Cc2ccc(-n3cccn3)cc2)c(=O)c2ccoc12 [Compound D5]  human mAChR M1 (Homo sapiens)              NO
 5  Cc1ncc(-c2cc(F)c(Cn3cc(C(=O)N[C@H]4CCOC[C@@H]4O)c4ncccc4c3=O)c(F)c2)s1 [Compound A51]  human mAChR M1 (Homo sapiens)              NO
 6  O=C(N[C@H]1CCOC[C@@H]1O)c1cn(Cc2ccc(-c3cscn3)cc2)c(=O)n2ccnc12 [Compound B17]  human mAChR M1 (Homo sapiens)             YES
 7  Cn1ccc(-c2ccc(Cn3cc(C(=O)N[C@H]4CCOC[C@@H]4O)c4nccnc4c3=O)c(F)c2)n1 [Compound A63]  human mAChR M1 (Homo sapiens)              NO
 8  Cn1cnc2c(C(=O)N[C@H]3CCCC[C@@H]3O)cn(Cc3ccc(-n4cccn4)cc3)c(=O)c21 [Compound C6]  human mAChR M1 (Homo sapiens)             YES
 9  Cn1cc(-c2ccc(Cn3cc(C(=O)NC4CCOCC4)c4ncccc4c3=O)c(F)c2)cn1 [Compound A10]  human mAChR M1 (Homo sapiens)              NO
10  Cn1ccc(-c2ccc(Cn3cc(C(=O)N[C@H]4CCCC[C@@H]4O)c4occc4c3=O)c(F)c2)n1 [Compound D7]  human mAChR M1 (Homo sapiens)              NO
11  CC1(C)COCCC1NC(=O)c1cn(Cc2ccc(-n3cccn3)cc2)c(=O)c2ccoc12 (stereo not drawn) [Compound D1]  human mAChR M1 (Homo sapiens)              NO
12  O=C(N[C@H]1CCOC[C@@H]1O)c1cn(Cc2ccc(-n3cccn3)cc2)c(=O)c2ccoc12 [Compound D2]  human mAChR M1 (Homo sapiens)              NO

====

Biological target: human mAChR M1 (Homo sapiens)
Construct: host or cells: CHO-K1 cells (ATCC), stably transfected using Lipofectamine2000
Assay: mAChR M1 cell-based functional assay (calcium mobilization), PAM activity: increase in the EC20 acetylcholine response
Settings: CHO-K1 cells expressing hM1; potentiation of EC20 acetylcholine response
As shown below, each of these compounds has a reported Emax value.
Parameter: Emax (%)

In [3]: df
Out[3]:
                                    compound  parameter  observed_result
 0  CC(C)[C@@H](CO)NC(=O)c1cn(Cc2c(F)cc(-c3cccc4nn(C)cc34)cc2F)c(=O)c2nccnc12       Emax               56
 1  Cc1cn2c(=O)n(Cc3ccc(-n4cccn4)cc3)cc(C(=O)N[C@H]3CCCC[C@@H]3O)c2n1       Emax               30
 2  Cn1cc(-c2ccc(Cn3cc(C(=O)N[C@H]4CCCC[C@@H]4O)c4nccnc4c3=O)c(F)c2)cn1       Emax               62
 3  Cn1nccc1-c1cc(F)c(Cn2cc(C(=O)N[C@H]3CCCC[C@@H]3O)c3ncccc3c2=O)c(F)c1       Emax               38
 4  Cn1cc2c(-c3cc(F)c(Cn4cc(C(=O)N[C@H]5CC[C@@H]5O)c5nccn5c4=O)c(F)c3)cccc2n1       Emax               59
 5  Cn1cc2c(-c3cc(F)c(Cn4cc(C(=O)N[C@H]5CCC[C@@H]5O)c5nccnc5c4=O)c(F)c3)cccc2n1       Emax               74
 6  Cn1cc(-c2ccc(Cn3cc(C(=O)N[C@H]4CCCCC[C@@H]4O)c4nccn4c3=O)c(F)c2)cn1       Emax               70
 7  Cn1cc2c(-c3cc(F)c(Cn4cc(C(=O)N[C@H]5CCC[C@@H]5O)c5nccn5c4=O)c(F)c3)cccc2n1       Emax               59
 8  Cn1cc2c(-c3cc(F)c(Cn4cc(C(=O)N[C@H]5CCOC[C@@H]5O)c5ncncc5c4=O)c(F)c3)cccc2n1       Emax               40
 9  O=C(N[C@H]1CCOC[C@@H]1O)c1cn(Cc2ccc(-n3cccn3)cc2)c(=O)n2ccnc12       Emax               67
10  Cn1ccc(-c2ccc(Cn3cc(C(=O)N[C@H]4CCOC[C@@H]4O)c4ncccc4c3=O)c(F)c2)n1       Emax               90
11  CC(C)[C@@H](CO)NC(=O)c1cn(Cc2ccc(-c3cnn(C)c3)cc2F)c(=O)c2nccnc12       Emax               26
12  Cn1cc2c(-c3cc(F)c(Cn4cc(C(=O)NCC5CCCO5)c5occc5c4=O)c(F)c3)cccc2n1 (centres unmarked)       Emax               53
13  Cn1cnc2c(C(=O)N[C@H]3CCCC[C@@H]3O)cn(Cc3ccc(-n4cccn4)cc3)c(=O)c21       Emax               43
